Test: in vivo
Details: rat, plasma, po
For each of the compounds below, state its AUC.
Give bare numbers, in ng·h/mL.

CC(C)c1cccc(COC(=O)NC(C(=O)N[C@@H](Cc2ccccc2)C[C@H](O)[C@H](Cc2ccccc2)NC(=O)OCc2cccnc2)C(C)C)n1 (some centres not stated) :: 140
COc1ccc(COC(=O)NC(C(=O)N[C@@H](Cc2ccccc2)[C@@H](O)C[C@H](Cc2ccccc2)NC(=O)OCc2cccnc2)C(C)C)cn1 (some centres not stated) :: 160
CC(C)c1nc(CN(C)C(=O)NCCC(=O)N[C@@H](Cc2ccccc2)C[C@H](O)[C@H](Cc2ccccc2)NC(=O)OCc2cncs2)cs1 :: 190
CCc1nc(COC(=O)NC(C(=O)N[C@@H](Cc2ccccc2)[C@@H](O)C[C@H](Cc2ccccc2)NC(=O)OCc2cccnc2)C(C)C)cs1 (some centres not stated) :: 420
COCc1nc(CN(C)C(=O)NC(C(=O)N[C@@H](Cc2ccccc2)C[C@H](O)[C@H](Cc2ccccc2)NC(=O)OCc2cccnc2)C(C)C)cs1 (some centres not stated) :: 490
Cc1cncc(CN(C)C(=O)NC(C(=O)N[C@@H](Cc2ccccc2)C[C@H](O)[C@H](Cc2ccccc2)NC(=O)OCc2cccnc2)C(C)C)c1 (some centres not stated) :: 310

Consider the record given below.
For this compound ( CC(C)C(NC(=O)N(C)Cc1csc(C2CCC2)n1)C(=O)N[C@@H](Cc1ccccc1)C[C@H](O)[C@H](Cc1ccccc1)NC(=O)OCc1cncs1 (some centres not stated) ), measured AUC is 6290

###

Test: in vivo
Conditions: rat, plasma, po
Endpoint Name: Tmax

CC(C)C(NC(=O)N(C)Cc1csc(C(C)(C)C)n1)C(=O)N[C@@H](Cc1ccccc1)C[C@H](O)[C@H](Cc1ccccc1)NC(=O)OCc1cccnc1 (stereo partly drawn) :: 19.8 min
CC(C)c1nc(COC(=O)NC(C(=O)N[C@@H](Cc2ccccc2)C[C@H](O)[C@H](Cc2ccccc2)NC(=O)OCc2cccnc2)C(C)C)cs1 (stereo partly drawn) :: 6 min
Cc1ccc(CN(C)C(=O)NC(C(=O)N[C@@H](Cc2ccccc2)[C@@H](O)C[C@H](Cc2ccccc2)NC(=O)OCc2cccnc2)C(C)C)cn1 (stereo partly drawn) :: 6 min
Cc1cncc(COC(=O)NC(C(=O)N[C@@H](Cc2ccccc2)C[C@H](O)[C@H](Cc2ccccc2)NC(=O)OCc2cccnc2)C(C)C)c1 (stereo partly drawn) :: 9 min
CC(C)c1nc(CN(C)C(=O)NC(C(=O)N[C@@H](Cc2ccccc2)C[C@H](O)[C@H](Cc2ccccc2)NC(=O)OCc2ccno2)C(C)C)co1 (stereo partly drawn) :: 6 min

Okay, here is my list. What is Tmax for each of these?
1. CC(C)c1nc(CN(C)C(=O)NC(C(=O)N[C@@H](Cc2ccccc2)[C@@H](O)C[C@H](Cc2ccccc2)NC(=O)OCc2cccnc2)C(C)C)cs1 (stereo partly drawn)
2. CCc1nc(COC(=O)NC(C(=O)N[C@@H](Cc2ccccc2)C[C@H](O)[C@H](Cc2ccccc2)NC(=O)OCc2cccnc2)C(C)C)cs1 (stereo partly drawn)
3. CCc1cccc(COC(=O)NC(C(=O)N[C@@H](Cc2ccccc2)C[C@H](O)[C@H](Cc2ccccc2)NC(=O)OCc2cccnc2)C(C)C)n1 (stereo partly drawn)

1: 15 min; 2: 9 min; 3: 12 min
